Biological target: human cloned CHRM2 receptor (M2_CHO cells) (Homo sapiens, UniProt P08172)
Construct: expressed in transfected cells; host or cells: CHO-K1
Sequence (P08172 whole entry): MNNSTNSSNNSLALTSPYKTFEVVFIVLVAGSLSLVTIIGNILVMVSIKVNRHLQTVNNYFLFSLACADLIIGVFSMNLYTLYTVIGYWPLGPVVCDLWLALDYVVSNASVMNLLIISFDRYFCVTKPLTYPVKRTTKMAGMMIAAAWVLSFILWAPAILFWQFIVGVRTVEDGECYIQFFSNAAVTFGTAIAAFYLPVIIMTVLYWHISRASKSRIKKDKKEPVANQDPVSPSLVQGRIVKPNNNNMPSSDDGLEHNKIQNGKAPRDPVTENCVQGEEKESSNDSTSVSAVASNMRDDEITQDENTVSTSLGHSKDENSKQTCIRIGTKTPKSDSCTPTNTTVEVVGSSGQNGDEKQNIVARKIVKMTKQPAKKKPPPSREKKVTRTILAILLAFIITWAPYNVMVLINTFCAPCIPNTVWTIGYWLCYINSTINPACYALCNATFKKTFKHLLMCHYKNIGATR
Assay: CHRM2 Ca++ Flux Assay (agonist mode, FDSS 7000EX)
Type: cell-based
Settings: agonist mode; geometric mean if tested more than once; read-out: M2 FDSS EC50
Observed Property: EC50 (nM)

# example entries with known answers
Given the entry Fc1ccc(C2CCOCC2)c(C2CCN([C@@H]3CCC4(C3)CN(c3nnco3)C4)CC2)c1 [Example 2I] , report its measured EC50.
125

Given the entry c1ccc(C2CCN([C@@H]3CCC4(C3)CN(c3nnco3)C4)CC2)c(-c2ncco2)c1 [Example 2M] , report its measured EC50.
343

[A] Fc1ccc(N2CC3(CC[C@@H](N4CCC(c5ccccc5C5CCOCC5)CC4)C3)C2)cn1 [Example 5CC]
[B] O=C(C1COC1)N1CC2(CC[C@@H](N3CCC(c4ccccc4OCCC4COC4)CC3)C2)C1 [Example 7KK]
[C] Fc1ccc(OC2CC3(COC3)C2)c(C2CCN([C@@H]3CCC4(C3)CN(c3cncnc3)C4)CC2)c1 (single isomer, unassigned) [Example 10E]
[D] CCOc1ccccc1C1CCN([C@@H]2CCC3(C2)CN(C(=O)C2COC2)C3)CC1 [Example 7J]
Your job: order these 4 records by EC50, ascending. Answer by writing out the labels in the requested order.
B, D, A, C
(B: 91 nM, D: 207 nM, A: 466 nM, C: 3990 nM)

###

Target: human cloned CHRM2 receptor (M2_CHO cells) (Homo sapiens)
Construct: expressed in transfected cells; host or cells: CHO-K1
Assay: CHRM2 Ca++ Flux Assay (agonist mode, FDSS 7000EX)
Assay type: cell-based
Conditions: Percent Activity measured to EC100 of Carbachol
Observed Property: M2 FDSS PA (%)

# example entries with known answers
Given the entry Fc1ccc(C2CCOCC2)c(C2CCN([C@@H]3CCC4(C3)CN(c3cncnc3)C4)CC2)c1 (single isomer, unassigned) [Example 10C] , report its measured M2 FDSS PA.
30

Given the entry O=C(N1CC2(CC[C@@H](N3CCC(c4ccccc4OC(F)(F)F)CC3)C2)C1)C1(F)CC1 (single isomer, unassigned) [Example 9A] , report its measured M2 FDSS PA.
31

Given the entry O=C(N1CC2(CC[C@@H](N3CCC(c4ccccc4OC(F)(F)F)CC3)C2)C1)C1(F)CC1 (single isomer, unassigned) [Example 9B] , report its measured M2 FDSS PA.
0

Given the entry O=C1CCCN1CCOc1ccccc1C1CCN([C@@H]2CCC3(C2)CN(C(=O)C2(F)CC2)C3)CC1.O=CO (single isomer, unassigned) , report its measured M2 FDSS PA.
0

Given the entry CCOc1ccccc1C1CCN([C@@H]2CCC3(C2)CN(C(=O)C2(F)CC2)C3)CC1 (single isomer, unassigned) , report its measured M2 FDSS PA.
0

[1] Fc1ccc(C2CCOCC2)c(C2CCN([C@@H]3CCC4(C3)CN(c3cncnc3)C4)CC2)c1 (single isomer, unassigned) [Example 10D]
[2] O[C@H]1CC[C@@H](c2ccccc2C2CCN([C@@H]3CCC4(C3)CN(c3nnco3)C4)CC2)CC1 (single isomer, unassigned)
[3] Fc1cncc(N2CC3(CC[C@@H](N4CCC(c5cc(F)ccc5OC5CCOCC5)CC4)C3)C2)c1 (single isomer, unassigned) [Example 10A]
[4] FC(F)Oc1ccccc1C1CCN([C@@H]2CCC3(C2)CN(c2nncs2)C3)CC1 (single isomer, unassigned) [Example 10O]
Your job: order these 4 records by M2 FDSS PA, ascending. Answer by writing out the labels in the requested order.
2, 1, 4, 3

[A] O=C(N1CC2(CC[C@@H](N3CCC(c4cc(F)ccc4OC4CCOCC4)CC3)C2)C1)C1(F)CC1 (single isomer, unassigned) [Example 9C]
[B] COc1ccccc1C1CCN([C@H]2CCC3(C2)CN(c2ncco2)C3)CC1 (single isomer, unassigned) [Example 10J]
Compare the recorded M2 FDSS PA of A and B ; state which is larger. Indicate which entry you chose by stating its label.
B
(B: 42%, A: 0%)
